Reported EC50 by item:
- tested_system: 5-hydroxytryptamine receptor 2A (Rattus norvegicus, UniProt P14842)
- Sequence (P14842 whole entry): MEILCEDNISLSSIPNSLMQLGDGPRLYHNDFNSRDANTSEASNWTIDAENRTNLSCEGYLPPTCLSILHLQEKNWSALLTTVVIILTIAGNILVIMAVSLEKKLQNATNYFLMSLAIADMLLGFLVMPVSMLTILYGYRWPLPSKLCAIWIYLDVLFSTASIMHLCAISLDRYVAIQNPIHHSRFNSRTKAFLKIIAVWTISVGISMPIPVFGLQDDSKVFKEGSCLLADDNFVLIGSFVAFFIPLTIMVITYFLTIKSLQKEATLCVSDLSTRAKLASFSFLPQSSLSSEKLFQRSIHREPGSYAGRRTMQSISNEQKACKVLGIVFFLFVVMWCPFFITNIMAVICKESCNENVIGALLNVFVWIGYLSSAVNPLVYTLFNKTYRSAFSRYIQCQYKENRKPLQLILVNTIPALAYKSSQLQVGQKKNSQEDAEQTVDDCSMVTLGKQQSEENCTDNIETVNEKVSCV
- assay_name: Agonist activity at 5HT2A receptor in rat A7r5 cells assessed as intracellular calcium mobilization relative to 5HT

{"columns": ["molecule", "tested_system", "limit_sign", "EC50 [nM]"],
 "data": [
  ["C[C@@H](N)[C@H](O)c1c2c(c(Br)c3c1OCC3)OCC2", "5-hydroxytryptamine receptor 2A (Rattus norvegicus, UniProt P14842)", "=", 32.7],
  ["C[C@@H](N)[C@@H](O)c1c2c(c(Br)c3c1OCC3)OCC2 (racemic)", "5-hydroxytryptamine receptor 2A (Rattus norvegicus, UniProt P14842)", "=", 87.8],
  ["Cc1noc(CCc2c3c(c(C[C@@H](C)N)c4c2OCC4)OCC3)n1", "5-hydroxytryptamine receptor 2A (Rattus norvegicus, UniProt P14842)", ">", 10000],
  ["C[C@@H](N)Cc1c2c(c(CO)c3c1OCC3)OCC2", "5-hydroxytryptamine receptor 2A (Rattus norvegicus, UniProt P14842)", "=", 175],
  ["COCc1c2c(c(C[C@@H](C)N)c3c1OCC3)OCC2", "5-hydroxytryptamine receptor 2A (Rattus norvegicus, UniProt P14842)", "=", 12],
  ["Cc1noc(Cc2c3c(c(C[C@@H](C)N)c4c2OCC4)OCC3)n1", "5-hydroxytryptamine receptor 2A (Rattus norvegicus, UniProt P14842)", "=", 49.2],
  ["C[C@@H](N)Cc1c2ccoc2c(CO)c2ccoc12", "5-hydroxytryptamine receptor 2A (Rattus norvegicus, UniProt P14842)", "=", 33],
  ["COc1cc(C[C@@H](C)N)c(OC)cc1I", "5-hydroxytryptamine receptor 2A (Rattus norvegicus, UniProt P14842)", "=", 17.8],
  ["COC(=O)CCc1c2c(c(C[C@@H](C)N)c3c1OCC3)OCC2", "5-hydroxytryptamine receptor 2A (Rattus norvegicus, UniProt P14842)", "=", 26],
  ["COCCOCc1c2c(c(C[C@@H](C)N)c3c1OCC3)OCC2", "5-hydroxytryptamine receptor 2A (Rattus norvegicus, UniProt P14842)", "=", 71],
  ["Cc1noc(Cc2c3ccoc3c(C[C@@H](C)N)c3ccoc23)n1", "5-hydroxytryptamine receptor 2A (Rattus norvegicus, UniProt P14842)", "=", 16.9],
  ["COC(=O)c1c2c(c(C[C@@H](C)N)c3c1OCC3)OCC2", "5-hydroxytryptamine receptor 2A (Rattus norvegicus, UniProt P14842)", "=", 880],
  ["CC(N)Cc1c2c(c(Br)c3c1OCC3)OCC2 (configuration not stated)", "5-hydroxytryptamine receptor 2A (Rattus norvegicus, UniProt P14842)", "=", 13],
  ["C[C@@H](N)Cc1c2c(c(CC(=O)O)c3c1OCC3)OCC2", "5-hydroxytryptamine receptor 2A (Rattus norvegicus, UniProt P14842)", "=", 4970],
  ["C[C@@H](N)Cc1c2c(c(CCC(=O)O)c3c1OCC3)OCC2", "5-hydroxytryptamine receptor 2A (Rattus norvegicus, UniProt P14842)", ">", 1000],
  ["COCc1c2ccoc2c(C[C@@H](C)N)c2ccoc12", "5-hydroxytryptamine receptor 2A (Rattus norvegicus, UniProt P14842)", "=", 3.6],
  ["Cc1noc(-c2c3c(c(C[C@@H](C)N)c4c2OCC4)OCC3)n1", "5-hydroxytryptamine receptor 2A (Rattus norvegicus, UniProt P14842)", "=", 8190]
]}
